- experimental_system: Fyn (UniProt P06241)
- Sequence (P06241 whole entry, looked up): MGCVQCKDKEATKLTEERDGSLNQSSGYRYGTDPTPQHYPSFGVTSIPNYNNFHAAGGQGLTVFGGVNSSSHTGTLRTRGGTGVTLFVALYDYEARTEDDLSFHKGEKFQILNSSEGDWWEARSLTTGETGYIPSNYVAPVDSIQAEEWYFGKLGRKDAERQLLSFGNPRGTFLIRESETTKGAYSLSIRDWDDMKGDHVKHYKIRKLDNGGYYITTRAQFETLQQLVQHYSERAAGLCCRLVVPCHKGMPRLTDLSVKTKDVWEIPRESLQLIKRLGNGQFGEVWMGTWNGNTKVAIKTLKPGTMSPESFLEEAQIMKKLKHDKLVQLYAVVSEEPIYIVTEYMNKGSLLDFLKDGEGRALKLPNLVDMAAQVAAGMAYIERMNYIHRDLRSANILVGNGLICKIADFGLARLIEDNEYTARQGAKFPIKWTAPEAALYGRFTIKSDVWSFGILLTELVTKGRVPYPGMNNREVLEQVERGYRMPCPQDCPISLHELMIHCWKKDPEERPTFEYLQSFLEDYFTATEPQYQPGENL
- experiment_notes: phosphorylation enrichment, bacterial display (enrichment ratio); higher = better substrate or ligand; peptides without Tyr show the background;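 further: 11-residue human phosphosite peptides and single-mutation variants displayed on the E. coli surface, counted by deep sequencing, each peptide's frequency after selection divided by its frequency in the unselected input library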;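 further: frequency after pTyr selection over input frequency; kinase dosed for 20-30% of maximal phosphorylation in three min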
Everything with phosphorylation enrichment lower than 0.6 is NOT MET; everything else, including exactly 0.6, is MET.

Answered examples (3):
{"columns": ["sequence_string", "experimental_system", "label"],
 "data": [
  ["QWRTKYETDTI [MYH7_Y1375_A1379T]", "Fyn (UniProt P06241)", "NOT MET"],
  ["CTNPRYLAAGS [RABL3_Y185]", "Fyn (UniProt P06241)", "NOT MET"],
  ["DTNIAYWLHPR [POMT1_Y581]", "Fyn (UniProt P06241)", "MET"]
]}

Quick check, phosphorylation enrichment >= 0.6? TARREYMHSPS [CPOX_Y429_W427R]
MET

# bool: phosphorylation enrichment of RRVPVYGGRGA [QDPR_Y16_L14P] >= 0.6
MET

Decide: phosphorylation enrichment of RLAKTYKTTLE [ALB_Y377_E378K] >= 0.6?
NOT MET

Has RSHRSYSCQVM [IGLL1_Y192_R189H] a recorded phosphorylation enrichment greater than or equal to 0.6?
NOT MET

Determine whether measured phosphorylation enrichment meets or exceeds 0.6 for TVINKYQGKLF [HGD_Y249]
NOT MET

Answer whether phosphorylation enrichment of EKQARYEIVVE [CDH5_Y223] is greater than or equal to 0.6.
NOT MET
